# Protocol Details: Cytotoxicity against human 9KB cells
# Format: functional
# Test Settings: Homo sapiens, 9KB; read-out: ED50 (the source's name)

- Compound: "CCCCCCCCCCCCCC[C@@H](O)[C@H]1CC[C@H]([C@H](O)CC[C@H](O)CCCCC[C@@H](O)CC2=C[C@H](C)OC2=O)O1 [GONIOTHALAMICIN]"
  EC50: "< 10 ng/mL"
- Compound: "CCCCCCCCCC[C@@H](O)[C@@H]1CC[C@H]([C@H](O)CC[C@H](O)[C@@H]2CC[C@@H](CCCCCCC[C@@H](O)CC3=C[C@H](C)OC3=O)O2)O1 [SYLVATICIN]"
  EC50: "< 1 ng/mL"
- Compound: "CCCCCCCCCCCC[C@@H](O)[C@H]1CC[C@H]([C@H](O)CCCC[C@H](O)CCCCC[C@@H](O)CC2=CC(C)OC2=O)O1 (some centres undefined) [ANNONACIN]"
  EC50: "1 ng/mL"
- Compound: "CCCCCCCCCC[C@H](O)[C@H]1CC[C@H]([C@H](O)CC[C@H](O)[C@@H]2CC[C@@H](CCCCCCC[C@@H](O)CC3=C[C@H](C)OC3=O)O2)O1 [BULLATALICIN]"
  EC50: "> 10000 ng/mL"
